All values here come from ChEMBL document CHEMBL5058577.

tested on: U2OS; assay: Multiplex assay against U2OS; type: toxicity, cell-based; conditions: human, 24 h, 1 µM, compound concentration 1 uM, replicate 2
endpoint.name: Population Normal (%)
Numbers only; they are read as %.

- compound: "CN(C)C(=O)Cn1cc(-c2ccc(-c3cncc4ccccc34)cc2)cn1"
  unit.abbrev: "%"
  Population Normal (%): 98
- compound: "N#Cc1cc(F)cc(-c2nc(-c3ccc(F)cn3)no2)c1"
  unit.abbrev: "%"
  Population Normal (%): 99
- compound: "O=C(NCCN1CCC(n2c(=O)[nH]c3cc(Cl)ccc32)CC1)c1ccc(F)cc1 [HALOPEMIDE]"
  unit.abbrev: "%"
  Population Normal (%): 99
- compound: "COc1cccc2c1c(NS(=O)(=O)c1ccc(Cl)s1)nn2Cc1cccc(CNC(=O)C(C)(C)O)c1"
  unit.abbrev: "%"
  Population Normal (%): 94

Input line: Quick one: Population Normal (%) of CCCCC1=NC2(CCCC2)C(=O)N1Cc1ccc(-c2ccccc2-c2nnn[nH]2)cc1 ?
Output line: 97

====

test system: Fibroblast; assay: Multiplex assay against human fibroblast; type: toxicity, cell-based; settings: 12 h, 1 µM, compound concentration 1 uM, replicate 1
Parameter Population Apoptotic (%): see the listing below.
Numbers only; they are read as %.

- molecule: "Cc1noc(-c2ccc(-c3ccc(CC(=O)O)cc3)cc2)c1NC(=O)O[C@H](C)c1ccccc1Cl"
  Population Apoptotic (%): 22

Input line: What measured Population Apoptotic (%) is associated with CC(C)(C)c1cc(NC(=O)Nc2ccc(-c3cn4c(n3)sc3cc(OCCN5CCOCC5)ccc34)cc2)no1 on Fibroblast?
Output line: 42

Input line: What measured Population Apoptotic (%) is associated with CCCCC(=O)N(Cc1ccc(-c2ccccc2-c2nnn[nH]2)cc1)[C@H](C(=O)O)C(C)C on Fibroblast?
Output line: 45

Input line: What measured Population Apoptotic (%) is associated with COc1ccccc1N1CCN(C[C@@H](C(=O)NC(C)(C)C)c2ccccc2)CC1.Cl.Cl on Fibroblast?
Output line: 43

Input line: What measured Population Apoptotic (%) is associated with CCCCC1=NC2(CCCC2)C(=O)N1Cc1ccc(-c2ccccc2-c2nnn[nH]2)cc1 on Fibroblast?
Output line: 40

Input line: What measured Population Apoptotic (%) is associated with Cl.NCCc1ccc(O)c(O)c1 [DOPAMINE HYDROCHLORIDE] on Fibroblast?
Output line: 42

Input line: What measured Population Apoptotic (%) is associated with Cc1onc(-c2ccccc2Cl)c1C(=O)N(C)c1ccc(Cl)cc1 on Fibroblast?
Output line: 60

Input line: What measured Population Apoptotic (%) is associated with CC(C)c1noc(N2CCC(COc3ccc(-c4ccc(S(C)(=O)=O)cc4)nc3)CC2)n1 on Fibroblast?
Output line: 38

Input line: What measured Population Apoptotic (%) is associated with CC[C@@H](C)Nc1nc(C)nc2c(-c3ccc(OC)nc3C)c(C)nn12 on Fibroblast?
Output line: 40

Input line: What measured Population Apoptotic (%) is associated with CC(=O)Nc1cccc2c1c(Sc1ccc(Cl)cc1)c(C)n2CC(=O)O on Fibroblast?
Output line: 27

Input line: What measured Population Apoptotic (%) is associated with NCCc1cn(S(=O)(=O)c2c(Cl)nc3sccn23)c2ccccc12.O=C(O)C(=O)O on Fibroblast?
Output line: 45

Input line: What measured Population Apoptotic (%) is associated with N#Cc1c(Oc2cccc(OS(=O)(=O)CCCC(F)(F)F)c2)cccc1C(F)(F)F on Fibroblast?
Output line: 51

Input line: What measured Population Apoptotic (%) is associated with CCc1cc2cc(NS(=O)(=O)c3ccc(C#N)cc3)ccc2n(CC)c1=O on Fibroblast?
Output line: 42

Input line: What measured Population Apoptotic (%) is associated with O=C(CCCc1ccccc1)Nc1nc2ccccc2c(=O)s1 on Fibroblast?
Output line: 58

Input line: What measured Population Apoptotic (%) is associated with CC(/C=C1\SC(=S)N(CCCC(=O)Nc2ccc(C(=O)O)c(O)c2)C1=O)=C\c1ccccc1 on Fibroblast?
Output line: 50

====

Parameter Population Healthy Nuclei (%): see the listing below.
test system: Fibroblast; assay: Multiplex assay against human fibroblast; assay type: toxicity, cell-based; settings: 24 h, 10 µM, compound concentration 10 uM, replicate 1
Numbers only; they are read as %.

// worked examples, Population Healthy Nuclei (%) included
- compound: "Cc1cnc(-c2cc(N3CCN(C(=O)CCS(C)(=O)=O)CC3)ncc2Cl)c(C)c1"
  endpoint.name: "Population Healthy Nuclei (%)"
  reported: 79
- compound: "Cl.N=C(N)NC(=O)Cc1c(Cl)cccc1Cl [GUANFACINE HYDROCHLORIDE]"
  endpoint.name: "Population Healthy Nuclei (%)"
  reported: 68

Input line: Quick one: Population Healthy Nuclei (%) of O=C1[C@H](Cc2ccc(O)cc2)N2C(=O)CCN(C(=O)NCc3ccccc3)[C@H]2CN1Cc1cccc2ccccc12 ?
Output line: 62

Input line: Quick one: Population Healthy Nuclei (%) of CC(C)(C)c1cc(NC(=O)Nc2ccc(-c3cn4c(n3)sc3cc(OCCN5CCOCC5)ccc34)cc2)no1 ?
Output line: 57

====

Parameter Total Cell Count: see the listing below.
test system: Fibroblast; assay: Multiplex assay against human fibroblast; format: toxicity, cell-based; details: 48 h, 1 µM, compound concentration 1 uM, replicate 1
Lab note: record just the number, no unit beside it.

- compound: "CN1CCN(c2cc(-c3ccccc3)nc(N)n2)CC1"
  Total Cell Count: 137
- compound: "Br.CS(=O)(=O)Nc1c(O)ccc2c1CCCC2C1=NCCN1 (stereo not given)"
  Total Cell Count: 167

Input line: Quick one: Total Cell Count of COC[C@@H](c1ccc(C(F)(F)F)cc1)N1CCN(C2(C)CCN(C(=O)c3c(C)ncnc3C)CC2)C[C@@H]1C.O=C(O)/C=C\C(=O)O [VICRIVIROC MALEATE] ?
Output line: 127

Input line: Quick one: Total Cell Count of N#Cc1cc(F)cc(-c2nc(-c3ccc(F)cn3)no2)c1 ?
Output line: 137

Input line: Quick one: Total Cell Count of C[C@H](N)COC(=O)[C@@H](CCCCN)NC(=O)Cc1c(-c2ccc3ccccc3c2)[nH]c2c1ccc1ccccc12 ?
Output line: 186

====

system: U2OS; test: Multiplex assay against U2OS; assay type: toxicity, cell-based; conditions: human, 12 h, 1 µM, compound concentration 1 uM, replicate 1
Hi! Just check whether Population Pyknosed Nuclei (%) is below 10%. Below gives condition met, equal or above gives condition not met.

Input line: Say whether its Population Pyknosed Nuclei (%) is strictly beneath 10%. Entry: CC(C)(C)c1cc(NC(=O)Nc2ccc(-c3cn4c(n3)sc3cc(OCCN5CCOCC5)ccc34)cc2)no1
Output line: condition not met

====

tested on: Fibroblast; assay: Multiplex assay against human fibroblast; assay type: toxicity, cell-based; details: 24 h, 10 µM, compound concentration 10 uM, replicate 2
Hi! Just check whether Population Apoptotic (%) is below 40%. Below gives condition met, equal or above gives condition not met.

Solved cases below.
- molecule: "CC(C)c1noc(N2CCC(COc3ccc(-c4ccc(S(C)(=O)=O)cc4)nc3)CC2)n1"
  assigned.category: "condition not met"
- molecule: "O=C(CCCc1ccccc1)Nc1nc2ccccc2c(=O)s1"
  assigned.category: "condition not met"
- molecule: "CC(=O)Nc1cccc2c1c(Sc1ccc(Cl)cc1)c(C)n2CC(=O)O"
  assigned.category: "condition not met"
- molecule: "Cc1sc2c(c1C)C(c1ccc(Cl)cc1)=N[C@@H](CC(=O)NCCCCCCCCNC(=O)COc1cccc3c1C(=O)N(C1CCC(=O)NC1=O)C3=O)c1nnc(C)n1-2 (stereo partly drawn)"
  assigned.category: "condition not met"
- molecule: "Cc1cccc(NC(=O)CN2CCC(c3ccccn3)CC2)c1.Cl.Cl"
  assigned.category: "condition not met"

Input line: Say whether its Population Apoptotic (%) is strictly beneath 40%. Entry: Cc1onc(-c2ccccc2Cl)c1C(=O)N(C)c1ccc(Cl)cc1
Output line: condition not met

Input line: Say whether its Population Apoptotic (%) is strictly beneath 40%. Entry: Cc1cnc(-c2cc(N3CCN(C(=O)CCS(C)(=O)=O)CC3)ncc2Cl)c(C)c1
Output line: condition not met

====

test system: HEK-293T; test: Multiplex assay against HEK293T; format: toxicity, cell-based; conditions: human, 24 h, 1 µM, compound concentration 1 uM, replicate 2
endpoint.name: Population Hoechst High Intensity Objects (%)
Numbers only; they are read as %.

// worked examples, Population Hoechst High Intensity Objects (%) included
- compound: "O=C(NCCN1CCC(n2c(=O)[nH]c3cc(Cl)ccc32)CC1)c1ccc(F)cc1 [HALOPEMIDE]"
  unit.abbrev: "%"
  reported: 6
- compound: "CCCCC1=NC2(CCCC2)C(=O)N1Cc1ccc(-c2ccccc2-c2nnn[nH]2)cc1 [IRBESARTAN]"
  unit.abbrev: "%"
  reported: 7
- compound: "Cc1c(CC(=O)O)c2cccnc2n1Cc1ccc(S(C)(=O)=O)cc1C(F)(F)F [FEVIPIPRANT]"
  unit.abbrev: "%"
  reported: 4
- compound: "CN(C)C(=O)Cn1cc(-c2ccc(-c3cncc4ccccc34)cc2)cn1"
  unit.abbrev: "%"
  reported: 7
- compound: "Cc1cnc(-c2cc(N3CCN(C(=O)CCS(C)(=O)=O)CC3)ncc2Cl)c(C)c1"
  unit.abbrev: "%"
  reported: 6

Input line: Quick one: Population Hoechst High Intensity Objects (%) of CC(C)(C)c1cc(NC(=O)Nc2ccc(-c3cn4c(n3)sc3cc(OCCN5CCOCC5)ccc34)cc2)no1 [QUIZARTINIB] ?
Output line: 4

Input line: Quick one: Population Hoechst High Intensity Objects (%) of O=C1[C@H](Cc2ccc(O)cc2)N2C(=O)CCN(C(=O)NCc3ccccc3)[C@H]2CN1Cc1cccc2ccccc12 ?
Output line: 8

Input line: Quick one: Population Hoechst High Intensity Objects (%) of Cc1onc(-c2ccccc2Cl)c1C(=O)N(C)c1ccc(Cl)cc1 ?
Output line: 3

Input line: Quick one: Population Hoechst High Intensity Objects (%) of C[C@H](N)COC(=O)[C@@H](CCCCN)NC(=O)Cc1c(-c2ccc3ccccc3c2)[nH]c2c1ccc1ccccc12 ?
Output line: 7
